- target-desc: Glutamate receptor ionotropic, kainate 1 (Homo sapiens, UniProt P39086)
- Sequence (P39086 whole entry): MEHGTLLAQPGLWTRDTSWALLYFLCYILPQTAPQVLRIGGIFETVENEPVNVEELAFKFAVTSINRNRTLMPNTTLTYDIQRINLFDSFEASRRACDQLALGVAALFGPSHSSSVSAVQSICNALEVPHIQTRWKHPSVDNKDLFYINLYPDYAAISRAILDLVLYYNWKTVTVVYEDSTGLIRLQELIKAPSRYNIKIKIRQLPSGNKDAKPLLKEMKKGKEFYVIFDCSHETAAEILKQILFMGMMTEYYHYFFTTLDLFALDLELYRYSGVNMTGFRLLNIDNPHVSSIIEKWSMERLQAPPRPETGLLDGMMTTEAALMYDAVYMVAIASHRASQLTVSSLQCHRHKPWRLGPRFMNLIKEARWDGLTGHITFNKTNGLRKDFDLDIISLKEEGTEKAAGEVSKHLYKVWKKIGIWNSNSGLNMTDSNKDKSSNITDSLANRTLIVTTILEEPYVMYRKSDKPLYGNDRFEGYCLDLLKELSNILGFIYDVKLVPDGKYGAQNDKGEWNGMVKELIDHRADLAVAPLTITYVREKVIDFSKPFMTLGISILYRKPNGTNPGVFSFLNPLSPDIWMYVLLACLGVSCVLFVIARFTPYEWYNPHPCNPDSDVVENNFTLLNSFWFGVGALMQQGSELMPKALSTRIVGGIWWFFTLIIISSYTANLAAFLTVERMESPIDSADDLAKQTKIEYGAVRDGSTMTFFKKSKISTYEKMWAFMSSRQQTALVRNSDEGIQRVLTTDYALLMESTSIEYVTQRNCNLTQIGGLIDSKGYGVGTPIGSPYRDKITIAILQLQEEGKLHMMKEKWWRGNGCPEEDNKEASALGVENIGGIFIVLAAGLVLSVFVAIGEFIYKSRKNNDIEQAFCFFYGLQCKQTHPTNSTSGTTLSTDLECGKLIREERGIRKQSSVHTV
outcome-measure: IC50 (µM)

chemical-structure	outcome-measure	measurement
CCn1c(-c2ccccc2)cc2cc(OC)ccc21	IC50	12

Values were extracted from ChEMBL document CHEMBL3102783.
